Quick list: IC50 per entry.
- Test system: 171881-019-R-J1-PDC tumor spheroid viability;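 also: spheroids exposed to compound for 7 days before viability read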
- methodSummary: Anticancer human tumor 171881-019-R-J1-PDC patient-derived invasive breast carcinoma cell line growth inhibition [PI3K]
- experimentalConditions: curve of first compound; second compound 1 µM; spheroids with HUVEC and MSC

compound	recordedMeasurement
CCCS(=O)(=O)Nc1ccc(F)c(C(=O)c2c[nH]c3ncc(-c4ccc(Cl)cc4)cc23)c1F + CC(Nc1ncnc2nc[nH]c12)c1cc2cccc(Cl)c2c(=O)n1-c1ccccc1	6000 nM
CC1(C)CCC(CN2CCN(c3ccc(C(=O)NS(=O)(=O)c4ccc(NCC5CCOCC5)c([N+](=O)[O-])c4)c(Oc4cnc5[nH]ccc5c4)c3)CC2)=C(c2ccc(Cl)cc2)C1 + Cc1nc(NC(=O)N2CCCC2C(N)=O)sc1-c1ccnc(C(C)(C)C(F)(F)F)c1	< 31.6 nM

Query block: Recorded IC50 for C[C@@H](NC(=O)c1ncnc(N)c1Cl)c1ncc(C(=O)Nc2cc(C(F)(F)F)c(Cl)cn2)s1 + Cc1nc(NC(=O)N2CCCC2C(N)=O)sc1-c1ccnc(C(C)(C)C(F)(F)F)c1 , please?
Result block: < 31.6 nM

Query block: Which IC50 value belongs to CC1(C)CCC(CN2CCN(c3ccc(C(=O)NS(=O)(=O)c4ccc(NCC5CCOCC5)c([N+](=O)[O-])c4)c(Oc4cnc5[nH]ccc5c4)c3)CC2)=C(c2ccc(Cl)cc2)C1 + COc1c(OCCCN2CCOCC2)ccc2c3n(c(=NC(=O)c4cnc(N)nc4)nc12)CCN3 ?
Result block: < 31.6 nM

Query block: Endpoint output: IC50 of Cn1cnc2c(F)c(Nc3ccc(Br)cc3Cl)c(C(=O)NOCCO)cc21 + COc1c(OCCCN2CCOCC2)ccc2c3n(c(=NC(=O)c4cnc(N)nc4)nc12)CCN3 . Value?
Result block: < 9.49 nM
